test: molar heat capacity at constant pressure; details: 248.15 K; 101.33 kPa; Crystal; Small sample (50 mg) DSC
OBSERVED PROPERTY: molar heat capacity at constant pressure (J/K/mol)

| COMPOUND | molar heat capacity at constant pressure [J/K/mol] |
| --- | --- |
| OC[C@@H](O)[C@@H](O)[C@H](O)[C@H](O)CO | 192.92 |
| OC[C@@H](O)[C@@H](O)CO | 137.82 |
| O[C@H]1[C@H](O)[C@@H](O)[C@H](O)[C@@H](O)[C@H]1O [cis-1,2,3,5-trans-4,6-cyclohexanehexol] | 179.65 |
| OC[C@@H](O)[C@H](O)[C@@H](O)CO | 173.32 |
| OC[C@H](O)C(O)[C@@H](O)CO [L-(-)-arabitol] | 171.06 |
| OC[C@@H](O)C(O)[C@H](O)CO | 166.22 |
